Recorded measurements of Kd, one per entry
System: YSK4
Construct: gene MAP3K19
# number only, unit nM dropped from output

Study these solved cases before continuing.
[
  {
    "COMPOUND": "Nc1ncnc2[nH]c(-c3ccccc3)nc12 [AH5015]",
    "ASSAYED_SYSTEM": "YSK4",
    "READOUT": "Kd",
    "MEASUREMENT": 270
  },
  {
    "COMPOUND": "O=C(O)COc1ncnc2cc(-c3ccc4[nH]ncc4c3)sc12",
    "ASSAYED_SYSTEM": "YSK4",
    "READOUT": "Kd",
    "MEASUREMENT": 20
  },
  {
    "COMPOUND": "O=C(Nc1ccccc1)Nc1cccc(Oc2ccc3nccn3n2)c1",
    "ASSAYED_SYSTEM": "YSK4",
    "READOUT": "Kd",
    "MEASUREMENT": 270
  },
  {
    "COMPOUND": "Cn1ccc2ncnc(Oc3ccc(NC(=O)Nc4ccccc4)cc3)c21",
    "ASSAYED_SYSTEM": "YSK4",
    "READOUT": "Kd",
    "MEASUREMENT": 170
  }
]

Switching to the query record.
API: value(readout= Kd, system= YSK4, query= `NC(=O)c1nnc2ccccc2c1N` );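 further: kd values determined as follow-up on hits from a single-replicate KINOMEscan panel screen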
300

###

# Lookup of reported %Inh keyed by entry
Test system: ERBB4
TEST_SETTINGS: concentration: 1 μM, replicates: in singlicate; n = 1
Number in %, nothing else.

Sample answers from the record:
[
  {
    "COMPOUND": "Cc1cccc(-c2cc(Nc3ccncc3)c3ccccc3n2)n1 [GSK223675]",
    "MEASUREMENT": 26
  },
  {
    "COMPOUND": "CCn1c(-c2ccccn2)nc2cnccc21 [SB-736398]",
    "MEASUREMENT": 0
  },
  {
    "COMPOUND": "Cc1ccc(-c2cc(-c3c[nH]nc3-c3ccccn3)ccn2)cc1 [GW684088]",
    "MEASUREMENT": 0
  },
  {
    "COMPOUND": "COc1cc2ncnc(Nc3ccc4nc(-c5ccccc5)[nH]c4c3)c2cc1OC.Cl [GW282450]",
    "MEASUREMENT": 33
  },
  {
    "COMPOUND": "Cc1cccc(-c2nc(-c3ccc(S(C)(=O)=O)cc3)sc2-c2ccnc(NCCc3ccccc3)c2)c1",
    "MEASUREMENT": 0
  },
  {
    "COMPOUND": "Cl.NC(=O)c1cccc(Nc2nccc(Nc3ccc(Oc4cccc(Cl)c4)c(Cl)c3)n2)c1 [GW659008]",
    "MEASUREMENT": 55
  }
]

Here is another compound to look at.
Consider the compound shown here: Cn1cncc1-c1ccc2ncnc(Nc3ccc(OCc4ccccc4)cc3)c2c1 [GW320571] What is its recorded %Inh?
61

###

Test system: ACVR2B
TEST_SETTINGS: concentration: 1 μM, replicates: in singlicate; n = 1
READOUT: %Inh (%)
// return numeric value only (unit: %, not printed)

# get_value(readout='%Inh', item= `CS(=O)(=O)c1ccc(-c2c(-c3ncn[nH]3)sc(N3CCOCC3)c2C#N)cc1` )
0

# iterate: Cn1cncc1-c1ccc2ncnc(Nc3ccc(OCc4ccccc4)cc3)c2c1 [GW320571]
16

Follow-up entry: COc1ccc2nc(-c3cccc(C)n3)nc(Nc3ccncc3)c2c1 [GSK204919]
0

And then `Fc1cccc(COc2nnc(-c3ccc4c(c3)CCO4)o2)c1` , what is it?
100

// repeat for Cc1cccc(-c2nc(C)cc(Nc3ccncc3)n2)n1 [GSK257997] and report
7

Could you do the same for O=S(=O)(c1ccc(-c2ccnc3[nH]ccc23)cc1)N1CCCC1 [GSK846226] , please?
0

Then what about the compound COc1cccc(NC(=O)NC2CCN(c3ccnc(Nc4ccc(F)cc4)n3)C2)c1 (stereo not shown) [GSK1379721] ?
4

###

Tested on: WNK3
TEST_SETTINGS: concentration: 1 μM, replicates: in singlicate; n = 1
Each entry below carries its reported %Inh.
Numeric answer only, unit % assumed.

Here are 5 molecules together with their reported answers.
[
  {
    "MOLECULE": "CS(=O)(=O)c1ccc(-c2nc3n(c2-c2ccncc2)CCC3)cc1 [SKF-105942]",
    "%Inh (%)": 0
  },
  {
    "MOLECULE": "Cc1cc(NCC(c2ccccc2)c2ccccc2)nc(NCc2ccc(C(F)(F)F)cc2)n1 [GW497681]",
    "%Inh (%)": 27
  },
  {
    "MOLECULE": "O=S(=O)(c1ccc(-c2ccnc3[nH]ccc23)cc1)N1CCCC1 [GSK846226]",
    "%Inh (%)": 3
  },
  {
    "MOLECULE": "Cc1cccc(-c2cc(Nc3ccncc3)c3ccccc3n2)n1 [GSK223675]",
    "%Inh (%)": 1
  },
  {
    "MOLECULE": "O=c1cc(N2CCOCC2)nc2n(Cc3cccc(Cl)c3Cl)ccn12 [GSK2286295]",
    "%Inh (%)": 0
  }
]

Requested read-out: %Inh. Entry: Cc1c(Cn2ccn3c(=O)cc(N4CCOCC4)nc23)cccc1C(F)(F)F [GSK2289044]
14

How about this molecule: O=C(Nc1n[nH]c2nc(-c3nccs3)c(Br)cc12)C1CCCC1 [SB-742609]
19

Let us now turn to Cc1cccc(-c2nc(Nc3ccncc3)c3ccccc3n2)n1 [GW855857]
0

Quick one: `CC(=O)Nc1nc2cnc(Nc3cc(NC(=O)c4cccc(CCC#N)c4)ccc3C)nc2s1`
0

###

System: MYLK2
TEST_SETTINGS: concentration: 1 μM, replicates: in singlicate; n = 1
READOUT: %Inh (%)
Report as a plain number; the unit % is understood.

[
  {
    "MOL_SMILES": "Cc1ccccc1-n1cnc2c(N)ncnc21",
    "%Inh, %": 0
  },
  {
    "MOL_SMILES": "COc1ccc(Nc2nccc(-c3cccc(NC(=O)c4cc5cc(F)ccc5[nH]4)c3)n2)cc1",
    "%Inh, %": 19
  }
]

Hello, I am looking for reported %Inh with MYLK2 for `COC(=O)c1c(-c2ccccc2)c2cc(C(=O)O)ccc2c(=O)n1Cc1ccccc1` . Could you help?
8

###

System: SLK
TEST_SETTINGS: concentration: 1 μM, replicates: in singlicate; n = 1
Listing of recorded %Inh by entry.
Could you give the number and then its unit, please?

// worked examples, %Inh included
[
  {
    "MOLECULE": "Cc1ccccc1-n1cnc2c(N)ncnc21 [SKF-97510]",
    "%Inh": "100%"
  },
  {
    "MOLECULE": "COc1cccc(-c2cc(-c3c[nH]nc3-c3ccccn3)ccn2)c1 [GW680338]",
    "%Inh": "0%"
  },
  {
    "MOLECULE": "Cc1ccc(C(=O)Nc2ccc(Nc3ccnc4cc(-c5ccccn5)ccc34)cc2O)cc1.Cl [GW440146]",
    "%Inh": "0%"
  },
  {
    "MOLECULE": "Cn1ccc2ncnc(Oc3cccc(C(=O)Nc4ccccc4)c3)c21",
    "%Inh": "13%"
  }
]

Which %Inh is listed for O=C1NC(=O)C(N2CCc3ccccc32)=C1c1ccccc1Cl [SB-373598] ?
29%

Entry Nc1nc(-c2nccs2)c(-c2ccnc3ccccc23)s1 [GW693542] please
9%

Moving on to the next molecule: CC1=C(C(=O)Nc2cc3cn[nH]c3cc2F)C(c2ccc(C(F)(F)F)cc2)CC(=O)N1 (stereo not shown) [GSK429286]
1%

Quick one: COc1ccc(CNC(=O)NC2CCN(c3ccnc(Nc4cc(OC)c(OC)c(OC)c4)n3)C2)cc1 (stereo not shown) [GSK1379748]
0%

Okay, and O=S(=O)(c1ccc(-c2ccnc3[nH]ccc23)cc1)N1CCCC1 [GSK846226] ?
0%

Moving on to the next molecule: Cc1ccc(NC(=O)Nc2cccc(Cl)c2)cc1-c1ccc(C(=O)Nc2ccncc2)cc1 [GSK1398468]
6%

Continue with `Fc1cccc(COc2nnc(-c3ccc4c(c3)CCO4)o2)c1`
0%

Now consider `CC(=O)Nc1nc2cnc(Nc3cc(NC(=O)c4cccc(CCC#N)c4)ccc3C)nc2s1` .
14%

Moving on to the next molecule: `CC(C)(C)c1ccc(C(=O)Nc2cn3cc(Cl)ccc3n2)cc1`
24%

And for O=C(Nc1ccc2c(c1)OCO2)NC1CCN(c2ccnc(Nc3ccc(F)cc3)n2)C1 (stereo not shown) [GSK1379724] ?
10%

What do you get for COc1ccccc1CNC(=O)c1cc(C(=O)c2ccccc2C)c[nH]1 [GSK364507] ?
5%

What do we get for CS(=O)(=O)c1ccc(-c2nc3n(c2-c2ccncc2)CCC3)cc1 [SKF-105942] ?
0%

Here is the next molecule: Cc1cccc(-c2cc(Nc3ccncc3)c3ccccc3n2)n1 [GSK223675]
0%

Also COc1cc2ncnc(Nc3ccc4nc(-c5ccccc5)[nH]c4c3)c2cc1OC.Cl [GW282450] ?
30%

Also, Cl.c1ccc(-c2n[nH]cc2-c2ccnc(-c3ccc(CN4CCOCC4)cc3)c2)nc1 [GW776245] please.
0%

Origin of measurements: paper PMC5540273
